Origin of values: paper PMC5487681

Here, each record is paired with measured pIC50 data.
Target under test: Ca^2+-ATPase (SERCA1a) (Oryctolagus cuniculus, UniProt P04191)
Sequence (P04191 1-994 isoform P04191-2): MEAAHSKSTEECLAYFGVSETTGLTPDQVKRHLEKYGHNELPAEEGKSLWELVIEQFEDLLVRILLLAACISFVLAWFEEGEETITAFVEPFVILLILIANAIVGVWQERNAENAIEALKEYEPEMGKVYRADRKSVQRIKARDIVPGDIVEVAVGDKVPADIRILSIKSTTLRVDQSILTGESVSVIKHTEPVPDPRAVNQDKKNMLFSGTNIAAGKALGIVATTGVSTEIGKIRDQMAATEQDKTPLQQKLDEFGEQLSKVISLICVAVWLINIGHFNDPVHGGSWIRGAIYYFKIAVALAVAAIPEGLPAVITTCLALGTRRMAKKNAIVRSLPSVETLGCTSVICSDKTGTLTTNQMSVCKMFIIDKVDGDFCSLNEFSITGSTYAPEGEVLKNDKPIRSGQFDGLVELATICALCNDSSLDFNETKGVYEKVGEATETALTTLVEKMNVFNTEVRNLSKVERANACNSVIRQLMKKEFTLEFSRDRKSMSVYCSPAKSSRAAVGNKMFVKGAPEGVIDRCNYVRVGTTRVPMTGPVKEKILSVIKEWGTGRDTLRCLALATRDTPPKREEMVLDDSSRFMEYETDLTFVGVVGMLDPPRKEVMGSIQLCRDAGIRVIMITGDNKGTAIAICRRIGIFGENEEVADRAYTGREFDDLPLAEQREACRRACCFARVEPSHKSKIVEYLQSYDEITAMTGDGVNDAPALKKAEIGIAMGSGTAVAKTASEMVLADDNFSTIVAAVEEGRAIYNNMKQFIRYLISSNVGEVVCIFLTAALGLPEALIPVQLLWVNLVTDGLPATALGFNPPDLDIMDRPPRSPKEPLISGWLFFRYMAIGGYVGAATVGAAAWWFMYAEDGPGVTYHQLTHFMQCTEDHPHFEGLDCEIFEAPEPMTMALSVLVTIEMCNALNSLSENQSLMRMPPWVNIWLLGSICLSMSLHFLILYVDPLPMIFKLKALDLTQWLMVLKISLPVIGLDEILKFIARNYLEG
Assay overview: ATP hydrolysis assay, SERCA
Type: biochemical, rabbit
Condition summary: Table 1; ATP hydrolysis at pH 7.4 (compounds marked b)
Answer as the number alone; pIC50 is minus log10 of concentration in mol/L.

Bench note: what pIC50 did Cc1c(-c2ccccc2)[o+]c2ccccc2c1C#Cc1ccccc1 show?
5.47

pIC50 for O=C1C=CC(=O)N1c1cccc2ccccc12 ?
5.47

Consider the molecule shown here: Oc1cccc(Nc2nc(-c3ccc(Cl)c(Cl)c3)cs2)c1 What is its recorded pIC50?
5.42

---

Target under test: S. cerevisiae Pma1 (Saccharomyces cerevisiae)
Sequence (P05030 whole entry): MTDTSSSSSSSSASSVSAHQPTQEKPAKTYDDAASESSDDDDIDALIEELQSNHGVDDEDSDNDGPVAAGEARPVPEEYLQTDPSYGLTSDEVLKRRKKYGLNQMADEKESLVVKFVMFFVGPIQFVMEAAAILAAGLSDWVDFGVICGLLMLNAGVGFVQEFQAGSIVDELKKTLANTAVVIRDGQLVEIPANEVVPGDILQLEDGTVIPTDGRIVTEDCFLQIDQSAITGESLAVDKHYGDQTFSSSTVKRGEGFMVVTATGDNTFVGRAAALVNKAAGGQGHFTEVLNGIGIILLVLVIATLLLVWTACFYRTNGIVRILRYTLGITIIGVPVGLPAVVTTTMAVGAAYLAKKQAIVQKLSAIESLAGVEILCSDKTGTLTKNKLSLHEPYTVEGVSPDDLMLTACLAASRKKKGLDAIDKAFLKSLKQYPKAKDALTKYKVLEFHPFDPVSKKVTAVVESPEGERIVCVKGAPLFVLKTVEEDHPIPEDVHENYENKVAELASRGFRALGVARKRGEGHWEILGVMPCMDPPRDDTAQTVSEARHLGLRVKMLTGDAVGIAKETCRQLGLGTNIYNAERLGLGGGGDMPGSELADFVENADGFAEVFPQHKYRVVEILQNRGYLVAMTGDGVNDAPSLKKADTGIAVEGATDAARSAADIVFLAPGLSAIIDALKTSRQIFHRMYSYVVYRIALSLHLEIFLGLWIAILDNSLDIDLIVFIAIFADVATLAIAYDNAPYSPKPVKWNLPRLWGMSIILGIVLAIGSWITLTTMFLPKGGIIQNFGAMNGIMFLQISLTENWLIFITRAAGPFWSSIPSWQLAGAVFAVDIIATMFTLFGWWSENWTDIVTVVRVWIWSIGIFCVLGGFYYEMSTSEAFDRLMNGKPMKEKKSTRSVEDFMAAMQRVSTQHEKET
Assay overview: ATP hydrolysis assay, S. cerevisiae plasma membranes containing Pma1
Format: biochemical
Set-up: containing the full-length cDNA of the S. cerevisiae plasma membrane H^+-ATPase isoform PMA1; made in house; host or cells: S. cerevisiae RS72 (PMA1 cDNA under PMA1 promoter); also wild-type S. cerevisiae ATCC 9763
Condition summary: IC50 Pma1, Table 1; ATP hydrolysis at pH 6.5 (compounds marked b); 2 to 3 experiments
Observed property: pIC50
Scale: pIC50 equals -log10([C]), with [C] in mol/L.

API: value(readout= pIC50, system= S. cerevisiae Pma1 (Saccharomyces cerevisiae), query= O=C1C=CC(=O)N1c1cccc2ccccc12 )
5.03

---

Target under test: S. cerevisiae Pma1 (Saccharomyces cerevisiae)
Assay overview: ATP hydrolysis assay, S. cerevisiae plasma membranes containing Pma1
Format: biochemical
Parameters: containing the full-length cDNA of the S. cerevisiae plasma membrane H^+-ATPase isoform PMA1; made in house; host or cells: S. cerevisiae RS72 (PMA1 cDNA under PMA1 promoter); also wild-type S. cerevisiae ATCC 9763
Condition summary: Table 1; ATP hydrolysis at pH 7; 2 to 3 experiments; read-out: IC50 Pma1
Protocol: Plasma membranes containing Pma1 were isolated from S. cerevisiae RS72 cells containing the full-length cDNA of the S. cerevisiae plasma membrane H^+-ATPase isoform PMA1 under the control of the PMA1 promoter, as described in reference. […] The protein activity levels were determined by measuring the amount of free phosphate produced from the ATP hydrolysis reaction. […]
Observed property: pIC50
Note: pIC50 values are expressed as the negative base-10 logarithm of concentration in M.

CCCCOc1ccc(C2C(C#N)=C(N)Oc3cc(O)ccc32)cc1 (stereo not drawn) [Compound 11] ... 4.89
CCCCc1nc2sc3c(NCCCN(C)C)ncnc3c2c2c1CCCC2 [Compound 14] ... 4.86

For COc1cccc(Nc2nc(Cl)nc(Nc3cccc(OC)c3)n2)c1 [Compound 9] , what is its reported pIC50?
5.04

---

Target under test: Ca^2+-ATPase (SERCA1a) (Oryctolagus cuniculus, UniProt P04191)
Assay overview: ATP hydrolysis assay, SERCA
Assay type: biochemical, rabbit
Here, each record is paired with measured IC50 data.

CCc1nc2sc3c(NCCCN(C)C)ncnc3c2c2c1CCCC2 ... > 333 µM
COc1ccc(-c2cc(C(=O)Nc3ccc4c(c3)OCCO4)c3ccccc3n2)c(OC)c1 ... > 105 µM
O=C1[C@@H]2C(c3ccc(Br)cc3)=NN(c3ccccc3)[C@@H]2C(=O)N1c1ccccc1F ... > 105 µM

Give the measured IC50 of COc1cccc(Nc2nc(Cl)nc(Nc3cccc(OC)c3)n2)c1 .
> 105 µM

Give its IC50 value. Item: COc1ccc(-c2cc(C(=O)Nc3ccc(C(C)C)cc3)c3ccccc3n2)c(OC)c1
> 105 µM
